# system: TrkB (Homo sapiens (Human), UniProt Q16620 32-430)
# Sequence (Q16620 32-430 limits assumed): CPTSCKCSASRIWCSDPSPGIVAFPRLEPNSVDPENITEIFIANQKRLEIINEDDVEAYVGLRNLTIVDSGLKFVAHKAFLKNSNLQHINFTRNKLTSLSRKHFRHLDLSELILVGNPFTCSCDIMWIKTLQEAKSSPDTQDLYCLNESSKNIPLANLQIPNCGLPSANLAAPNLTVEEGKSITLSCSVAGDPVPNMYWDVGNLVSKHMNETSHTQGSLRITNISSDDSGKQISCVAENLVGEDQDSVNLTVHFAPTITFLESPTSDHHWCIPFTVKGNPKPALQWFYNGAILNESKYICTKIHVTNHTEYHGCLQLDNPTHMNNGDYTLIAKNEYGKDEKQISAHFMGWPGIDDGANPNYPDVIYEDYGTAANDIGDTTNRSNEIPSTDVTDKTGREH
# run description: koff of Fab at 25 C; T1/2=Log2/koff
Could you please report measured T1/2 for the items listed next?
A number alone suffices; assume min.

[ask] Look up and report measured T1/2 for this entry: 10-B9 (Fab, V domains shown, Fab) VH: QVQLVQSGAEVKKPGASVKVSCKASGYTFTNYDIIWVRQAPGQGLEWMGYINPYNDGRKENEKFKGRVTMTRDTSTSTVYMELSSLRSEDTAVYYCARLLKYRRFRYYAIDYWGQGTTVTVSS VL: DIQMTQSPSSLSASVGDRVTITCRASEPVYSNLAWYQQKPGKAPKLLIYAASNLQSGVPSRFSGSGSGTDFTFTISSLQPEDIATYYCQHFWGSPFTFGQGTKLEIK
[reply] 4

[ask] Output T1/2 of 14-B1 (Fab, V domains shown, Fab) VH: QVQLVQSGAEVKKPGASVKVSCKASGYTFTNYDIIWVRQAPGQGLEWMGYINPYNDGRKENEKFKGRVTMTRDTSTSTVYMELSSLRSEDTAVYYCARLLKYRRFRYYAIDYWGQGTTVTVSS VL: DIQMTQSPSSLSASVGDRVTITCRASEPVYSNLAWYQQKPGKAPKLLIYAASNLQSGVPSRFSGSGSGTDYTFTISSLQPEDIATYYCQHFWGSPFTFGQGTKLEIK
[reply] 13
